system: Brachiaria; test: Post-emergence herbicidal action; assay type: in vivo; details: 250 g a.i./ha (500 litres water/ha), sprayed at 4- to 6-leaf stage, evaluated after about 18 days; scale of nine ratings, 1 to 4 = good to very good action
Exercise: for every item that follows, state its recorded Post-emergence action, rating, Brachiaria.
Numbers only.

Consider the worked cases shown below.
{"COMPOUND SMILES": "Cc1nc(C(F)(F)F)ccc1C(=O)C1=C(Cl)C(C)(C)C(=O)C(C)(C)C1=NS(=O)(=O)c1ccccc1", "ASSAY TARGET": "Brachiaria", "READOUT VALUE": 2}
{"COMPOUND SMILES": "C=CS(=O)(=O)N=C1C(C(=O)c2ccc(C(F)(F)F)nc2C)=C(Cl)C(C)(C)C(=O)C1(C)C", "ASSAY TARGET": "Brachiaria", "READOUT VALUE": 2}

Could I get Post-emergence action, rating, Brachiaria for every one of these entries?
1. Cc1nc(C(F)(F)F)ccc1C(=O)C1=C(Cl)C(C)(C)C(=O)C(C)(C)C1=NS(=O)(=O)c1cccnc1F
2. CSC1=C(C(=O)c2ccc(C(F)(F)F)nc2C)C(=NS(=O)(=O)c2ccccc2)C(C)(C)C(=O)C1(C)C
3. Cc1nc(C(F)(F)F)ccc1C(=O)C1=C(Cl)C(C)(C)C(=O)C(C)(C)C1=NS(C)(=O)=O
4. CSC1=C(C(=O)c2ccc(C(F)(F)F)nc2C)C(=NS(=O)(=O)c2cccnc2F)C(C)(C)C(=O)C1(C)C

Resp:
1. 2
2. 2
3. 1
4. 3
